Test system: A549 lung cancer cells
measurement notes: Cell proliferation, A549
Type: cell-based, human
condition context: A549, compared to negative controls
[5FU] = 5-fluorouracil base replacing uracil
attribute measured: lung cancer cell proliferation

[[record]]
substance = "U^FAGCAGCACAU^FAAU^FGGU^FU^FU^FGU^FG (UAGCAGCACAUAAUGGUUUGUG; RNA, [5FU] at 1, 11, 14, 17, 18, 19, 21, backbone not given here) [modified miR-15a]"
measured_on = "A549 lung cancer cells"
attribute_measured = "lung cancer cell proliferation"
assay_result = "inhibited"

[[record]]
substance = "CU^FGACCU^FAU^FGAAU^FU^FGACAGCC (CUGACCUAUGAAUUGACAGCC; RNA, [5FU] at 2, 7, 9, 13, 14, backbone not given here) [modified miR-192]"
measured_on = "A549 lung cancer cells"
attribute_measured = "lung cancer cell proliferation"
assay_result = "inhibited"

[[record]]
substance = "U^FAAU^FACU^FGCCU^FGGU^FAAU^FGAU^FGA (UAAUACUGCCUGGUAAUGAUGA; RNA, [5FU] at 1, 4, 7, 11, 14, 17, 20, backbone not given here) [modified miR-200b, miR-200b in which all (7) U bases are replaced by 5-fluorouracil]"
measured_on = "A549 lung cancer cells"
attribute_measured = "lung cancer cell proliferation"
assay_result = "inhibited"

